Could you please report measured IC50 for the items listed next?
- System: Trypanosoma brucei rhodesiense (T.b.r.)
- assay-overview: in vitro effectiveness against Trypanosoma brucei rhodesiense
- Assay type: cell-based
- stated-conditions: Trypanosoma brucei, RHODESIENSE
Counter-ions that a name gives are not always drawn.
Record the result as number plus unit.

Here are 3 molecules together with their reported answers.
N=C(N)c1ccc(-c2ccc(-c3nc4cc(C(=N)N)ccc4o3)o2)cc1
11 nM
CSc1cc(-c2ccc(-c3ccc(NC(=N)N)c(SC)c3)o2)ccc1NC(=N)N [Compound 42, Dihydrochloride]
57 nM
N#Cc1ccc(-c2cccc(C=O)n2)cc1
21.7 nM

Please state, for each entry, its recorded IC50.
1. CCOc1cc(-c2ccc(-c3ccc(NC(=N)N)c(OCC)c3)o2)ccc1NC(=N)N [Compound 44, dihydrochloride]
2. CC(=O)O.N=C(N)c1ccc(-c2cccc(-c3nc4ccc(C(=N)N)cc4[nH]3)n2)cc1 [Compound 36, acetate salt]
3. N=C(Nc1ccc(-c2ccc(-c3ccc(NC(=N)c4ccccn4)cc3O)o2)c(O)c1)c1ccccn1 [Compound 43, Dihydrochloride]

Result:
40 nM
24 nM
32 nM
